Test system: Akt phosphorylation induced by IGF-1R
Test: Western blot analysis of Akt phosphorylation induced by IGF-1 in HT-29 cells
Format: cell-based, Human
Conditions: 100 nM; Table B2 lower part
Outcome: fulfilled for p-AKT relative to levels with 0.1 nM compound of at least 0.5; not fulfilled for anything lower.

Does the reported p-AKT relative to levels with 0.1 nM compound for CC(C)c1cc(Nc2nc(N3CCCC3C(=O)Nc3ccc(F)nc3)nc3c2CCC3)n[nH]1 (single isomer, unassigned) fall at or above the 0.5 mark?
not fulfilled

Textbook exercise: given the entry O=C(Nc1cnccn1)C1CCCN1c1nc2c(c(Nc3cc(C4CC4)[nH]n3)n1)CCC2 (single isomer, unassigned) [Compound 6a] , state whether its p-AKT relative to levels with 0.1 nM compound is greater than or equal to 0.5.
fulfilled

Identify whether the reported p-AKT relative to levels with 0.1 nM compound of the following compound is 0.5 or greater: CC(C)c1cc(Nc2nc(N3CCC[C@@H]3C(=O)Nc3ccc(F)nc3)nc3c2CCC3)on1 (single isomer, unassigned) [Compound 12a]
fulfilled

p-AKT relative to levels with 0.1 nM compound >= 0.5 for O=C(Nc1ccc(F)nc1)C1CCCN1c1nc2c(c(Nc3cc(C4CC4)[nH]n3)n1)CCC2 (racemic) [Compound 2] ?
not fulfilled

---

Target: Trk C (Homo sapiens, UniProt Q16288)
Sequence (Q16288 32-839): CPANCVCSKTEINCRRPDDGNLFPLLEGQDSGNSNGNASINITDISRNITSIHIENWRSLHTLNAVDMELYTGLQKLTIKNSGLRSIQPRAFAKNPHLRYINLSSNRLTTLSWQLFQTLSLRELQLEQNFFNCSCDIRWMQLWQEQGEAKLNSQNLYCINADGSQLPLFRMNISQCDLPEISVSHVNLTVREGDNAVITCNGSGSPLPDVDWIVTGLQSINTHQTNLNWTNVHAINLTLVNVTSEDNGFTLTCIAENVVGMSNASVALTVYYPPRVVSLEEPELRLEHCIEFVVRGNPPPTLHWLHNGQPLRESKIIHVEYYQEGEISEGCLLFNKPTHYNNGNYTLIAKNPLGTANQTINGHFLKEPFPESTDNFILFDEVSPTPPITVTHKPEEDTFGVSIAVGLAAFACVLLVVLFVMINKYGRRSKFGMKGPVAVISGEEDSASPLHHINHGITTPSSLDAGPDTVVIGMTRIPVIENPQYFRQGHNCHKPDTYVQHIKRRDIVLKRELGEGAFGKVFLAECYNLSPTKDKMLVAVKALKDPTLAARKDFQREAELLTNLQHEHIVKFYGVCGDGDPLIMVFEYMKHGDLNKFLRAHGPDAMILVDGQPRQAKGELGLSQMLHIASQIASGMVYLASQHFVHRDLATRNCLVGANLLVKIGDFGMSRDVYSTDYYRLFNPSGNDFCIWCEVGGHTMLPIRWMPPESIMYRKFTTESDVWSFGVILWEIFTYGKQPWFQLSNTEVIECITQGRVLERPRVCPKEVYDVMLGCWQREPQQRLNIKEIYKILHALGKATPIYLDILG
Test: HotSpot kinase assay: Trk C
Format: biochemical
Conditions: 100 nM compound; HotSpot; read-out: % Enzyme Inhibition @ 100 nM Trk C
A collection of compounds and their measured inhibition at 0.1 µM

- CC(C)c1cc(Nc2nc(N3CC(O)CC3C(=O)N(C)C)nc3c2CCC3)n[nH]1 (centres unmarked) [Compound 109a]: < 39%
- CC(C)c1cc(Nc2nc(N3CCCC3C(=O)N(C)C)nc3c2CCC3)n[nH]1 (single isomer, unassigned) [Compound 20b]: > 60%
- CC(C)c1cc(Nc2nc(N3CCCC3C(=O)N3CCCCC3)nc3c2CCC3)n[nH]1 (centres unmarked) [Compound 73b]: > 60%
- O=C(C1CCCN1c1nc2c(c(Nc3cc(C4CCCC4)[nH]n3)n1)CCC2)N1CCCC1 (centres unmarked) [Compound 112a]: > 60%
- CCN(CC)C(=O)C1CCCN1c1nc2c(c(Nc3cc(C4CCCC4)[nH]n3)n1)CCC2 (centres unmarked) [Compound 116a]: > 60%

Look up inhibition at 0.1 µM of CN(C)C(=O)C1CCCN1c1nc2c(c(Nc3cc(C4CCCC4)[nH]n3)n1)CCC2 (centres unmarked) [Compound 115a] and report it.
> 60%

Using the record for CN(C)C(=O)C1CCCN1c1nc2c(c(Nc3cc(C4CCCCC4)[nH]n3)n1)CCC2 (centres unmarked) [Compound 114b] , state its measured inhibition at 0.1 µM.
> 60%

State its inhibition at 0.1 µM for this compound: O=C(C1CCCN1c1nc2c(c(Nc3cc(C4CCCC4)[nH]n3)n1)CCC2)N1CCCCC1 (centres unmarked) [Compound 111a]
> 60%

Using the record for O=C(C1CC(O)CN1c1nc2c(c(Nc3cc(C4CCCC4)[nH]n3)n1)CCC2)N1CCCCC1 (centres unmarked) [Compound 108b] , state its measured inhibition at 0.1 µM.
> 60%

Input O=C(Nc1ccc(F)nc1)C1CCCN1c1nc2c(c(Nc3ccccn3)n1)CCC2 (centres unmarked) [Compound 102a] , output reported inhibition at 0.1 µM.
< 39%

Specify measured inhibition at 0.1 µM for O=C(Nc1nccs1)C1CCCN1c1nc2c(c(Nc3ncccn3)n1)CCC2 (centres unmarked) [Compound 105a] .
< 39%

Determine its reported inhibition at 0.1 µM: CN(C)C(=O)C1CC(O)CN1c1nc2c(c(Nc3cc(C4CCCC4)[nH]n3)n1)CCC2 (centres unmarked) [Compound 110b]
40 to 59%

Give the reported inhibition at 0.1 µM for this compound. O=C(Nc1ccc(F)nc1)C1CCCN1c1nc2c(c(Nc3ccc(=O)[nH]n3)n1)CCC2 (centres unmarked) [Compound 101b]
< 39%

Entry O=C(C1CCCN1c1nc2c(c(Nc3cc(C4CCCCC4)[nH]n3)n1)CCC2)N1CCCCC1 (centres unmarked) [Compound 113b] needs its inhibition at 0.1 µM filled in; supply it.
> 60%
